Recorded IC50 for the following compounds
# Tested on: H2228 (ALK-dependent non-small cell lung cancer)
# experiment-summary: MTT cytotoxicity assay, H2228
# run-conditions: Homo sapiens, NCI-H2228, read-out: IC50 H2228

compound: C[C@@H](Oc1cc(-c2cnn(C3CCNCC3)c2)cnc1NCc1ccc(O)cc1)c1c(Cl)ccc(F)c1Cl
study-target: H2228 (ALK-dependent non-small cell lung cancer)
unit-label: µM
IC50: 7.23

compound: C[C@@H](Oc1cc(-c2cnn(C3CCNCC3)c2)cnc1NC(=O)OCc1ccc(B(O)O)cc1)c1c(Cl)ccc(F)c1Cl [Prodrug A]
study-target: H2228 (ALK-dependent non-small cell lung cancer)
unit-label: µM
IC50: 23.1

compound: C[C@@H](Oc1cc(-c2cnn(C3CCNCC3)c2)cnc1NCc1ccc(B(O)O)cc1)c1c(Cl)ccc(F)c1Cl [Prodrug B]
study-target: H2228 (ALK-dependent non-small cell lung cancer)
unit-label: µM
IC50: 8.3
